Biacore kinetics kd listing for selected molecules.
biological target: T1, human FOLR1-HIS (Homo sapiens, UniProt P15328); assay: Biacore kinetics (surface plasmon resonance); type: binding; conditions: humanized 6D1 (2060) antibodies, Table 9
T1 construct: HIS
T1 sequence (P15328 25-234): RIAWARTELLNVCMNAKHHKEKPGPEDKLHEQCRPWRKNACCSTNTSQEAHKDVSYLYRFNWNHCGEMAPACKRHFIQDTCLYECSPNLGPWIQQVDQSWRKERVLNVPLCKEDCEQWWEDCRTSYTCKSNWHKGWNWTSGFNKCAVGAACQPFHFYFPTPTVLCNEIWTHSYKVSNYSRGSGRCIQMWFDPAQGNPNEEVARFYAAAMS
Supply the numeric figure in s⁻¹, leaving out any unit text.

Here's what some known entries look like.
molecule	Biacore kinetics kd [s⁻¹]
SRP2060-B01 (antibody, V domains shown) VH: EVQLLESGGGLVQPGGSLRLSCALSGFSLSTFGMGVGWVRQATGKGLEWVSHIWWDDDKYYHPALKGRFTISKDNSKNTVHLQMNSLRAEDTAVYYCGRNHFPHYYGSSHWYFNVWGQGTTVTVSS VL: DIQMTQSPSTLSASVGDRVTITCKASQDINSYLSWYQQKPGKAPKLLIYRANRLVDGVPSRFSGSGSGTEFTLTISSLQPDDFATYYCLQYDEFPYTFGGGTKVEIK	0.00147
SRP2060-E05: affinity-matured humanized 6D1; VH SEQ ID NO 364; VL H6D1-LC4 SEQ ID NO 368 (antibody, V domains shown, Synthetic SRP2060-E05, VH; Synthetic H6D1-LC4, VL) VH: EVQLLESGGGLVQPGGSLRLSCAFSGFSLSTFGMGVGWVRQAPGKGLEWVSHIWWDDDKYYHPALKGRFTVSKDNSKNTVYLQMNSLRAEDTAVYYCGRNHFPHYYGSSHWYFNVWGQGTTVTVSS VL: EIVMTQSPATLSLSPGERATLSCKASQDINSYLSWYQQKPGQAPRLLIYRANRLVDGIPARFSGSGSGTDYTLTISSLEPEDFAVYYCLQYDEFPYTFGGGTKVEIK	0.00158

Now let's try a different one.
Short answer for SRP2060-E10: affinity-matured humanized 6D1; VH SEQ ID NO 363; VL H6D1-LC4 SEQ ID NO 368 (antibody, V domains shown, Synthetic SRP2060-E10, VH; Synthetic H6D1-LC4, VL) VH: EVQLLESGGGLVQPGGSLRLSCAFSGFSLSTFGMGVGWVRQAPGKGLEWVSHIWWDDDKYYHPALKGRFTISKDNSKNTVYLQMNSLRAEDTAVYYCGRNHFPHYYGSSHWYFNVWGQGTTVTVSS VL: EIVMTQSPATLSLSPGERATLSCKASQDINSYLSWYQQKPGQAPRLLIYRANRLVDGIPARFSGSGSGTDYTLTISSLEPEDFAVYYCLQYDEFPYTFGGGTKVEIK : Biacore kinetics kd was 0.0012
